# System: S. aureus RN4220
# protocolSummary: growth inhibition call (relative growth <= 0.2)
# condition: 50 µM
Screen size: about 39,000 compounds; about 500 (1.3%) were called active. This excerpt belongs to a sample that is enriched for actives.
Write down one outcome, taken from active, inactive

Please review the entries below; each comes with its answer.
{"molecule": "CCC1OC(=O)C(C)C(OC2CC(C)(OC)C(O)C(C)O2)C(C)C(OC2OC(C)CC(N(C)C)C2O)C(C)(O)CC(C)C(=NOCOCCOC)C(C)C(O)C1(C)O (stereo unspecified)", "testSystem": "S. aureus RN4220", "cat": "active"}
{"molecule": "C[C@@H]1CN([C@@H](C)CO)C(=O)c2cc(NC(=O)c3ccncc3)ccc2O[C@@H](C)CCCCO[C@@H]1CN(C)S(=O)(=O)c1cn(C)cn1", "testSystem": "S. aureus RN4220", "cat": "inactive"}
{"molecule": "CC[C@@H]1OC(=O)[C@H](C)[C@@H](O[C@H]2C[C@@](C)(OC)[C@@H](O)[C@H](C)O2)[C@H](C)[C@@H](O[C@@H]2O[C@H](C)C[C@H](N(C)C)[C@H]2O)[C@](C)(O)C[C@@H](C)/C(=N\\OCOCCOC)[C@H](C)[C@@H](O)[C@]1(C)O", "testSystem": "S. aureus RN4220", "cat": "active"}
{"molecule": "COc1ccc(NC(=O)N(C)C[C@@H]2Oc3c(NS(C)(=O)=O)cccc3C(=O)N([C@H](C)CO)C[C@H]2C)cc1", "testSystem": "S. aureus RN4220", "cat": "inactive"}

Prompt line: Hello, I am checking results. What call was entered for COc1ccc(CC(=O)c2ccc(O)cc2O)cc1 ?
Response line: inactive

Prompt line: Hello, I am checking results. What call was entered for C[C@@H]1CN([C@H](C)CO)C(=O)Cc2cc(NC(=O)CCCCCC(=O)Nc3ccccc3N)ccc2O[C@@H]1CN(C)C(=O)Nc1ccc(C(F)(F)F)cc1 ?
Response line: inactive

# credit: the antibiotic and cytotoxicity screens of Wong et al. (2023)
